# TEST_TARGET: Mitogen-activated protein kinase 3 (Homo sapiens, UniProt P27361)
# Sequence (P27361 whole entry): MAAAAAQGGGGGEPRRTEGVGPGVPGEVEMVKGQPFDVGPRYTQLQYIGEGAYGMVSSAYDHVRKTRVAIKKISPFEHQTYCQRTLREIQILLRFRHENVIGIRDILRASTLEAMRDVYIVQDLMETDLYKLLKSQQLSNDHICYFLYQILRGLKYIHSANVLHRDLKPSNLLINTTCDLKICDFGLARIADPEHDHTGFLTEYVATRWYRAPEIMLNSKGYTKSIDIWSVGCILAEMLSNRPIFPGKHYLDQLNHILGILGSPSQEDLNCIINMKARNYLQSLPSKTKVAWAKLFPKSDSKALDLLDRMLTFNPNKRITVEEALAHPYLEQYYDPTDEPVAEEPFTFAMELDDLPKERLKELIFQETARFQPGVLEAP
# MEASUREMENT_DESCRIPTION: Inhibition of ERK1 (unknown origin) using GFP-ATF2 as substrate after 1 hr by TR-FRET assay
pIC50: −log10 of the molar value.
PARAMETER_MEASURED: pIC50

These solved cases illustrate the format of a correct answer.
INSERT INTO assay_data (entry_smiles, endpoint_value) VALUES
  ('COc1ccc(N2C(=O)/C(=C/c3ccc(OCC(=O)Nc4cccc(Cl)c4)cc3)N=C2c2ccccc2)cc1', 7.46),
  ('COc1ccc(N2C(=O)/C(=C/c3ccc(OCC(=O)Nc4ccccc4)cc3)N=C2c2ccccc2)cc1', 7.64);

1: COc1cccc(N2C(=O)/C(=C/c3ccc(OCC(=O)Nc4cccc(Cl)c4)cc3)N=C2c2ccccc2)c1
2: COc1cccc(N2C(=O)/C(=C/c3ccc(OCC(=O)Nc4ccc(C)cc4)cc3)N=C2c2ccccc2)c1
Of the pair 1 and 2 , name the member with the lesser recorded pIC50. // respond with label for picked entry
1
